- Test Method Notes: in vivo
- Condition Set: mouse, iv
Catalogue of LD50 at 24 h readings, one per entry.

Field: example entries. Status: answers known.
                                   compound     assay_value
0  CC(=O)c1cc2c(OCC(O)CNC(C)(C)C)cccc2o1 (stereo not shown) [Compound No. 2]  35 to 40 mg/kg
1  CC(=NC(C)C)c1cc2cccc(OCC(O)CNC(C)C)c2o1 (stereo not shown) [Compound No. 1]  65 to 70 mg/kg

// returns reported LD50 at 24 h for input CC(=NC(C)C)c1cc2c(OCC(O)CNC(C)C)cccc2o1 (stereo not shown) [Compound No. 6]
45 to 50 mg/kg

Endpoint output: LD50 at 24 h of CCc1cc2c(C(C)=O)ccc(OCC(O)CNC(C)C)c2o1 (stereo not shown) [Compound No. 8] . Value?
120 to 125 mg/kg

Param item = CCC(C)NCC(O)COc1cccc2cc(C(C)=O)oc12 (stereo not shown) [Compound No. 7] ; retrieve measured LD50 at 24 h.
75 to 80 mg/kg

Dear colleague, I am looking for the recorded LD50 at 24 h of the following compound: CCC(C)N=C(C)c1cc2c(OCC(O)CNC(C)CC)cccc2o1 (stereo not shown) [Compound No. 10]
60 to 65 mg/kg

For CC(=O)c1cc2cccc(OCC(O)CNC(C)C)c2o1 (stereo not shown) [Compound No. 3] , what is its reported LD50 at 24 h?
100 to 105 mg/kg
